- assay: chemical genetic growth profiling, strain panel (AID 1159580);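 further: tested at 20 µM; growth read once vehicle control cultures reached saturation at 30 °C; 1 = growth at the plate median or of vehicle wells; lower values mean less growth of the strain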
- cond: S. cerevisiae deletion strains, growth OD, locus YLR027C, strain aat2, hits give low values
In all, about 5,500 compounds went through this assay and about 2,000 (36%) were called active. Not shown: some 18% with an inconclusive outcome. This is one part of the list.
# normalized growth annotations
Respond with the number and no other words.

Sample answers from the record:
O=C(c1ccc(OCCN2CCCCC2)cc1)c1c(-c2ccc(O)cc2)sc2cc(O)ccc12; 1.01
COc1ccc(C(=O)CC(=O)O)c2c1C=CC(C)(C)O2; 1.01
COc1ccc2c(c1)OC/C(=C/c1ccc(OC)c(OC)c1)C2=O; 0.914
O=C(O[C@@H]1Cc2c(O)cc(O)cc2O[C@@H]1c1ccc(O)c(O)c1)c1cc(O)c(O)c(O)c1; 0.993
C=C1CCC2[C@](C)(CO)[C@H](O)CC[C@@]2(C)[C@@H]1C/C=C1/C(=O)OC[C@H]1O (stereo partly drawn); 1

Ask: Value lookup for normalized growth; key = C#CCN(C)Cc1ccccc1
Reply: 0.991

Ask: Look up normalized growth for this compound: CC(=O)Oc1cc(OC(C)=O)c2c(c1)O[C@H](c1ccc(OC(C)=O)c(OC(C)=O)c1)[C@H](OC(C)=O)C2
Reply: 1.01

Ask: # query: normalized growth of entry C[C@]12CCC(=O)C=C1C=CC1C2CC[C@@]2(C)C1CC[C@@]21CCC(=O)O1 (stereo partly drawn)
Reply: 0.994

Ask: Fill blank: measured normalized growth of the compound CC(=O)Oc1cc(OC(C)=O)c2c(c1)O[C@H](c1ccc(OC(C)=O)c(OC(C)=O)c1)[C@@H](OC(C)=O)C2 is ____.
Reply: 1.02

Ask: Which normalized growth value belongs to OCC(O)CN1CCN(c2ccccc2)CC1 (stereo not drawn) ?
Reply: 0.992

Ask: // lookup normalized growth for C=C[C@@](C)(O)CCC1C(=C)C[C@H](O)C2C(C)(C)CCCC12C (stereo partly drawn)
Reply: 0.995

Ask: Give its normalized growth value. Item: COc1ccc2c(c1)OC/C(=C\c1ccc(OC)c(O)c1)C2=O
Reply: 0.84

Ask: Could you share which normalized growth value was measured for C[C@]12CCC(=O)C=C1C=CC1C2CC[C@@]2(C)C1CC[C@@]2(O)CCC(=O)O (stereo partly drawn) ?
Reply: 1.01

* * *

- assay: chemical genetic growth profiling, strain panel (AID 1159580)
- cond: S. cerevisiae deletion strains, growth OD, locus YJL164C, strain tpk1, hits give low values
Screen size: about 5,500 compounds; about 2,000 (36%) were called active. About 18% were inconclusive and are not listed. This is one part of the list.
endpointLabel: normalized growth
Number only, please.

Here's what some known entries look like.
CNC(=O)O/N=C(\C)SC; 1
COc1cc([C@@H]2c3cc4c(cc3C(OC3O[C@@H]5COC(C)O[C@H]5[C@H](O)[C@H]3O)C3COC(=O)[C@@H]32)OCO4)cc(OC)c1O (some centres not stated); 1.05

Ask: I would be grateful if you could share the reported normalized growth for C=CCCCCCCCCCCCc1ccco1 .
Reply: 0.819

Ask: Need normalized growth of Oc1cc(O)c2c(c1)O[C@H](c1cc(O)c(O)c(O)c1)[C@H](O)C2 , thanks.
Reply: 1.01

Ask: # lookup: normalized growth of COc1ccc(CN(CCN(C)C)c2ccccn2)cc1
Reply: 1.02

Ask: Query (compound): COc1ccc([C@H]2Oc3c(I)c(OC)cc(OC)c3C[C@@H]2O)cc1OC ; field requested: normalized growth
Reply: 1.01

Ask: Quick one: normalized growth for CN(C)CCN(Cc1ccccc1)c1ccccn1 ?
Reply: 1

Ask: # lookup: normalized growth of CCOC(=O)n1ccn(C)c1=S
Reply: 0.979

* * *

- assay: chemical genetic growth profiling, strain panel (AID 1159580)
- cond: S. cerevisiae deletion strains, growth OD, locus YLR342W, strain FKS1, hits give low values
The campaign covered roughly 5,500 compounds. About 2,000 (36%) were called active. Not shown: some 18% with an inconclusive outcome. The list shows a part of the results.
endpointLabel: normalized growth
Keep it simple and answer with nothing but the number.

Observe how each entry below is paired with its result.
CC1CCc2cc(F)cc3c(=O)c(C(=O)O)cn1c23 (stereo not drawn); 0.978
CC1(C)S[C@@H]2[C@H](NC(=O)[C@H](N)c3ccccc3)C(=O)N2[C@H]1C(=O)O; 0.985
CC1COc2c(N3CCN(C)CC3)c(F)cc3c(=O)c(C(=O)O)cn1c23 (stereo not drawn); 0.976

Ask: Please look up its normalized growth: Cc1ccc(C(=O)Nc2ccc(S(=O)(=O)O)c3cc(S(=O)(=O)O)cc(S(=O)(=O)O)c23)cc1NC(=O)c1cccc(NC(=O)Nc2cccc(C(=O)Nc3cc(C(=O)Nc4ccc(S(=O)(=O)O)c5cc(S(=O)(=O)O)cc(S(=O)(=O)O)c45)ccc3C)c2)c1
Reply: 1.02

Ask: Reported normalized growth, compound CC[C@@H](C(=O)C(C)[C@@H](O)[C@H](C)CCc1ccc(C)c(O)c1C(=O)O)C1OC(CC)(C2CC[C@](O)(CC)[C@H](C)O2)C[C@@H]1C (stereo partly drawn) : ____
Reply: 1.05

Ask: Find the recorded normalized growth belonging to O=S(=O)(O)c1cc(N=C=S)ccc1/C=C/c1ccc(N=C=S)cc1S(=O)(=O)O and report it.
Reply: 1.04

Ask: For the compound shown here, COc1cc([C@@H]2c3cc4c(cc3[C@@H](O)C3COC(=O)C32)OCO4)cc(OC)c1O (stereo partly drawn) , give the reported normalized growth.
Reply: 0.986

Ask: Which normalized growth value belongs to NCCc1cnc[nH]1 ?
Reply: 1.02

* * *

- assay: chemical genetic growth profiling, strain panel (AID 1159580);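 further: tested at 20 µM; growth read once vehicle control cultures reached saturation at 30 °C; 1 = growth at the plate median or of vehicle wells; lower values mean less growth of the strain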
- cond: S. cerevisiae deletion strains, growth OD, locus YPL106C, strain sse1, hits give low values
Screen size: about 5,500 compounds; about 2,000 (36%) were called active. Another 18% or so got no clear call; they are omitted. The list shows a part of the results.
Consider the cut-off 1. If the recorded normalized growth is strictly smaller, the label is Fulfilled; if not, the label is Not fulfilled.

Recorded results for 3 compounds are shown here.
C=C[C@@](C)(O)CCC1C(=C)C[C@H](O)C2C(C)(C)CCCC12C (stereo partly specified); Not fulfilled
O=S(=O)(O)CCS; Fulfilled
c1ccc2c(c1)CCCC2C1=NCCN1 (stereo unspecified); Not fulfilled

Could you now consider this next compound?
Ask: Hello, is normalized growth of the following compound strictly smaller than 1? NCCS(=O)(=O)O
Reply: Fulfilled

* * *

- assay: chemical genetic growth profiling, strain panel (AID 1159580);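 further: tested at 20 µM; growth read once vehicle control cultures reached saturation at 30 °C; 1 = growth at the plate median or of vehicle wells; lower values mean less growth of the strain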
- cond: S. cerevisiae deletion strains, growth OD, locus YKL160W, strain elf1
The whole screen tested about 5,500 compounds, of which about 2,000 (36%) were called active. Inconclusive results (about 18%) are left out. No stated cut-off is given here; in the data, active means normalized growth mostly below about 0.91 (no sharp cut-off); inconclusive means no clear call, values can overlap the other calls; inactive means mostly above about 0.92. This is one part of the list.
Returns: one label drawn from active, inactive

Previously resolved entries follow.
COC(=O)C1=COC(OC2OC(CO)C(O)C(O)C2O)C2C(C)CC(=O)C12 (stereo not given); inactive
CCCCCCCCCCCCCc1ccco1; inactive
Oc1cc(O)c2c(c1)O[C@H](c1ccc(O)c(O)c1)[C@@H](O)C2; inactive
CCC[C@H](N[C@@H](C)C(=O)N1[C@H](C(=O)O)C[C@@H]2CCCC[C@@H]21)C(=O)OCC; inactive
O=C(Oc1cc(O)cc2c1C[C@@H](OC(=O)c1cc(O)c(O)c(O)c1)[C@@H](c1cc(O)c(O)c(O)c1)O2)c1cc(O)c(O)c(O)c1; inactive
Oc1cc(O)c2c(c1)O[C@H](c1ccc(O)c(O)c1)[C@H](O)C2; inactive
Clc1ccc(C(c2ccc(Cl)cc2)C(Cl)(Cl)Cl)cc1; inactive
Cc1ccccc1C(OCCN(C)C)c1ccccc1 (stereo not given); inactive

Ask: What is the recorded call for this compound in the test? Cc1ccc(S(=O)(=O)NC(=O)NN2CCCCCC2)cc1
Reply: inactive

Ask: Which outcome was entered for the compound CN(C)CCN(Cc1ccccc1)c1ccccn1 in this test?
Reply: inactive

* * *

- assay: chemical genetic growth profiling, strain panel (AID 1159580);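 further: tested at 20 µM; growth read once vehicle control cultures reached saturation at 30 °C; 1 = growth at the plate median or of vehicle wells; lower values mean less growth of the strain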
- cond: S. cerevisiae deletion strains, growth OD, locus YDL185W, strain tfp1
The campaign covered roughly 5,500 compounds. About 2,000 (36%) were called active. Roughly 18% stayed inconclusive and do not appear here. Rule as the data show it: active = normalized growth mostly below about 0.91 (no sharp cut-off); inconclusive = no clear call, values can overlap the other calls; inactive = mostly above about 0.92. This is one part of the list.
Return exactly one item of Y for active, N for inactive

CN1C2CCC1CC(OC(c1ccccc1)c1ccccc1N)C2 (stereo not drawn); N
O=C(O[C@@H]1Cc2c(O)cc(O)cc2O[C@@H]1c1ccc(O)c(O)c1)c1cc(O)c(O)c(O)c1; N
CN1C2C[C@H](OC(=O)[C@H](CO)c3ccccc3)C[C@H]1[C@@H](O)C2; N
CC(=O)Oc1cc(OC(C)=O)c2c(c1)O[C@H](c1ccc(OC(C)=O)c(OC(C)=O)c1)[C@@H](OC(C)=O)C2; N
O=C1C(Cl)=C(Cl)C(=O)C(Cl)=C1Cl; Y

Ask: Returns: the outcome recorded for CN1CCC(OC(c2ccccc2)c2ccccc2)CC1 in this assay.
Reply: N

Ask: # fetch the recorded call for COc1ccc(-c2coc3cc(O)ccc3c2=O)cc1 here
Reply: N

Ask: Tell me the recorded outcome of this test for COc1ccc(-c2coc3cc(O)ccc3c2=O)c(OC)c1O .
Reply: N

Ask: In this assay, the call recorded for CN(C)CCOC(c1ccc(Cl)cc1)c1ccccn1 (stereo not drawn) was what?
Reply: N

Ask: What classification did O=C1NCC2(CCN(CCc3ccccc3)CC2)O1 end up with in this test?
Reply: N
